Hey, just so you know, these numbers are from patent US9328090B2.

target: human mGlu5a receptor (Homo sapiens); construct: expressed in transfected cells; host or cells: HEK-293 (monoclonal, stably transfected); assay: Intracellular Ca2+ mobilization assay (mGlu5 PAM); assay type: cell-based; conditions: HEK-293 cells stably transfected with human mGlu5a; L-glutamate added at EC20
Sequence (P41594 21-1180 isoform P41594-2 limits assumed): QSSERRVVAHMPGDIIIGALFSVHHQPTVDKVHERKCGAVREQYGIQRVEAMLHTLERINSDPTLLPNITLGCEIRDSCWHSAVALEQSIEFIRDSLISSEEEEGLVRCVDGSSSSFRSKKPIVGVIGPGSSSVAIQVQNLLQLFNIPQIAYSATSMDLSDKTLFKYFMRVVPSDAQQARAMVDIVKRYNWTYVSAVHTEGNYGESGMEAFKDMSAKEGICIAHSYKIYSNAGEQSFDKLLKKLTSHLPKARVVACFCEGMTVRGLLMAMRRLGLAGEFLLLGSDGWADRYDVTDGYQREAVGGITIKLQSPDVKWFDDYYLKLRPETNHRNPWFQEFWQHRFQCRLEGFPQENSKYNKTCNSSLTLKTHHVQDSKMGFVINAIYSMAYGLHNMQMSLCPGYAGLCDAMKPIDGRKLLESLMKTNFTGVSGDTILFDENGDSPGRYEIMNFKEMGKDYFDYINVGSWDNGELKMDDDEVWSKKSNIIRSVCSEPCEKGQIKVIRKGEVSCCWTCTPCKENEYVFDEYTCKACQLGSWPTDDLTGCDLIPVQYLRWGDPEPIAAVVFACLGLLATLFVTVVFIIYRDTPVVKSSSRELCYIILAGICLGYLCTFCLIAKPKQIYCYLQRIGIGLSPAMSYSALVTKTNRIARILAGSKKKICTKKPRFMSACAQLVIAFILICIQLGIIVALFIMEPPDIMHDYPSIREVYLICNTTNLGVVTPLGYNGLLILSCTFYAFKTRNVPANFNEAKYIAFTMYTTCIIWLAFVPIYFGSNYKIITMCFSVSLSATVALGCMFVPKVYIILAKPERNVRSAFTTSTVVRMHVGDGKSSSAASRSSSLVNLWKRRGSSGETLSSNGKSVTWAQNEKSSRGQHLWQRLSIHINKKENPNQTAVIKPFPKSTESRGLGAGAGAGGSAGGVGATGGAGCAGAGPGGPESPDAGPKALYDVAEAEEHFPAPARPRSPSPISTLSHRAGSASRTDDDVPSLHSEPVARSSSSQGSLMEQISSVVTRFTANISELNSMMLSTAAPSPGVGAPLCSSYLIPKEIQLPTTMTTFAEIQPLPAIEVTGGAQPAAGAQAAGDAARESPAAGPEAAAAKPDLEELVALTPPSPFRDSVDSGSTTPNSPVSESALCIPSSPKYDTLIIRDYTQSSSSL
Entries annotated with measured EC50

SMILES_CODE: O=C1C[C@H]2CCC[C@H]2N1c1ccc(C#Cc2cc(F)ccc2F)cn1
SYSTEM: human mGlu5a receptor (Homo sapiens)
OUTPUT_UNIT: nM
EC50: 8

SMILES_CODE: O=C1C[C@H]2CCC[C@H]2N1c1ccc(C#Cc2ccc(F)cc2)cn1
SYSTEM: human mGlu5a receptor (Homo sapiens)
OUTPUT_UNIT: nM
EC50: 10

SMILES_CODE: O=C1C[C@H]2CCC[C@H]2N1c1ccc(C#Cc2cccc(F)c2)cn1
SYSTEM: human mGlu5a receptor (Homo sapiens)
OUTPUT_UNIT: nM
EC50: 10

SMILES_CODE: O=C1C[C@H]2CCC[C@H]2N1c1ccc(C#Cc2ccccc2)cn1
SYSTEM: human mGlu5a receptor (Homo sapiens)
OUTPUT_UNIT: nM
EC50: 10
